target: T1, mTfR-1 A278T on Expi293 cells (mouse, UniProt Q62351 1-763); assay: FACS, transfected Expi293 cells; mutant poorly expressed
T1 construct: whole, on cells
T1 sequence (Q62351 whole entry A278T): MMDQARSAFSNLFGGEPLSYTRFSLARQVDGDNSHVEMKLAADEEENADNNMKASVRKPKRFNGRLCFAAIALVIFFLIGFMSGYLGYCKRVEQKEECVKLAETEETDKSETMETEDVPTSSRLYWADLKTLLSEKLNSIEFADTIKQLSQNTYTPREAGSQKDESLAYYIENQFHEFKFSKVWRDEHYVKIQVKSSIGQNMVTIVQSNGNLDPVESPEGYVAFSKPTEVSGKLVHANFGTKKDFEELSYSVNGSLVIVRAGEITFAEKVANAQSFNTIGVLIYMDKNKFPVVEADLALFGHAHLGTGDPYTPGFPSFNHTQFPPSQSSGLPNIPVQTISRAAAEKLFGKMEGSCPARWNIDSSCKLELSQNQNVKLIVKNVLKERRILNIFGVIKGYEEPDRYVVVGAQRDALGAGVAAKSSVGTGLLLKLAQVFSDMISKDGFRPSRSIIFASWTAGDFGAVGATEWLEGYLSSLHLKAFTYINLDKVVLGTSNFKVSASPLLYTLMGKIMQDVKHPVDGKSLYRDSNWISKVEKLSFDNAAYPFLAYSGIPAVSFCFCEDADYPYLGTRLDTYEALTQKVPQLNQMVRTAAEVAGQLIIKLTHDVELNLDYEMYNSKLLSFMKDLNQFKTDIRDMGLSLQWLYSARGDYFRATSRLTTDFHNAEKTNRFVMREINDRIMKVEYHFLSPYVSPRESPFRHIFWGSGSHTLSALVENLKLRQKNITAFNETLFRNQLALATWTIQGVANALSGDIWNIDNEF
quantity_measured: % double-positive cells vs WT (%)
Answer with a number only, understood to be in %.

Example results:
binder | display_unit | % double-positive cells vs WT
Clone C VNAR-hFc fusion (Fc fusion, not shown: a dimerising Fc or GST, bivalent VNAR-Fc; also called Clone C-hFc) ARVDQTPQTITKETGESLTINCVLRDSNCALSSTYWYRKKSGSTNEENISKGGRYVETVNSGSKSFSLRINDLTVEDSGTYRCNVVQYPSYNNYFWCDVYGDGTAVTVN | % | 25
8D3 antibody (anti-mouse TfR-1 control; 8D3-hFc formatted antibody) (antibody, V domains shown) VH: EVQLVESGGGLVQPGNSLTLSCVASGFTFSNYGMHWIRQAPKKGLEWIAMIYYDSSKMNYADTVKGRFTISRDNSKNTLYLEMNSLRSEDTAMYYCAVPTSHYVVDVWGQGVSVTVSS VL: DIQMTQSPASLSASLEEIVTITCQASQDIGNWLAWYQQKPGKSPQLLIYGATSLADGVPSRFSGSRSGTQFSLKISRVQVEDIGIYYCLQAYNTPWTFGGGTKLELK | % | 45

IN: Give its % double-positive cells vs WT value. Item: Clone C variant 18 VNAR-hFc (Fc fusion, not shown: a dimerising Fc or GST, also called Clone C v18; Clone C var; 18) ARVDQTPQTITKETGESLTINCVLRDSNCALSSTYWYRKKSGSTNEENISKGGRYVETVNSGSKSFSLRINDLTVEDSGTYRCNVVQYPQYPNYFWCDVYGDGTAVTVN
OUT: 21

IN: Give its % double-positive cells vs WT value. Item: Clone C variant 13 VNAR-hFc (Fc fusion, not shown: a dimerising Fc or GST, also called Clone C v13; Clone C var; 13) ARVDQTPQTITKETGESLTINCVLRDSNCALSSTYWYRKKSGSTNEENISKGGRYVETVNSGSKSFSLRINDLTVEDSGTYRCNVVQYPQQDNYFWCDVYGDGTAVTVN
OUT: 12
